System: human colon cancer SW480 cells
Assay: Inhibitory action on the proliferation of SW480 cells
Type: cell-based
Settings: 48 hours, TetraColor ONE
Description: The action of the phenanthroindolizidine alkaloid compound of the present invention on the proliferation of human colon cancer SW480 cells, HT-29 cells, and human non-small cell lung cancer A549 cells was studied. […] After culturing, the number of viable cells was counted using TetraColor ONE (Seikagaku Corporation) in accordance with the attached operating procedure. […]
Measured SW480 proliferation inhibitory action IC50 of individual entries
Field: value (include unit after the number)

Observe how each entry below is paired with its result.
INSERT INTO results (mol_smiles, result) VALUES
  ('COc1cc2c3c(c4ccc(OC(=O)c5cccnc5)cc4c2cc1OC)[C@H](O)[C@@H]1CCCN1C3.Cl', '0.50 ng/mL'),
  ('COc1cc2c3c(c4ccc(OC(=O)C(C)(C)C)cc4c2cc1OC)C[C@@H]1CCCN1C3.CS(=O)(=O)O', '0.58 ng/mL');

Provide SW480 proliferation inhibitory action IC50 value for the following compound: COc1cc2c3c(c4ccc(OC(=O)c5cccs5)cc4c2cc1OC)[C@H](O)[C@@H]1CCCN1C3.Cl
1.3 ng/mL

Tell us which SW480 proliferation inhibitory action IC50 value is on record for COc1cc2c3c(c4ccc(OC(C)=O)cc4c2cc1OC)[C@H](O)[C@@H]1CCCN1C3.Cl
0.41 ng/mL

Return SW480 proliferation inhibitory action IC50 (reported value) for this compound: COc1cc2c3c(c4ccc(OC(=O)c5ccco5)cc4c2cc1OC)C[C@@H]1CCCN1C3.CS(=O)(=O)O
0.51 ng/mL

Specify SW480 proliferation inhibitory action IC50 for COc1cc2c3c(c4ccc(OC(=O)c5ccncc5)cc4c2cc1OC)[C@H](O)[C@@H]1CCCN1C3.Cl and stop.
0.51 ng/mL

Look up and state reported SW480 proliferation inhibitory action IC50 for CCCC(=O)Oc1ccc2c3c(c4cc(OC)c(OC)cc4c2c1)CN1CCC[C@H]1C3.CS(=O)(=O)O
0.54 ng/mL

Report measured SW480 proliferation inhibitory action IC50; entry is CCC(=O)Oc1ccc2c3c(c4cc(OC)c(OC)cc4c2c1)CN1CCC[C@H]1[C@H]3O.Cl
0.39 ng/mL

Give recorded SW480 proliferation inhibitory action IC50. COc1cc2c3c(c4ccc(OC(C)=O)cc4c2cc1OC)[C@H](OC(C)=O)[C@@H]1CCCN1C3.Cl
17.0 ng/mL

Tell me SW480 proliferation inhibitory action IC50 reported for COc1cc2c3c(c4ccc(OC(=O)c5ccco5)cc4c2cc1OC)C[C@@H]1CCCN1C3.Cl
0.62 ng/mL

###

Overview of recorded IC50 for various compounds
tested on: SV40 promoter; assay: SV40 promoter activity, luciferase assay in SW480/SV40-Luc cells; assay type: cell-based, human; conditions: Homo sapiens, SW480, read-out: SV40 promoter inhibitory activity IC50

INSERT INTO results (mol_smiles, assay_metric, result) VALUES
  ('COc1cc2c3c(c4ccccc4c2cc1OC)C[C@@H]1CCCN1C3.Cl', 'IC50', '> 0.1 µg/mL'),
  ('COc1cc2c3c(c4ccccc4c2cc1OC)[C@@H](O)[C@H]1CCCN1C3.Cl', 'IC50', '> 10 µg/mL'),
  ('COc1cc2c3c(c4ccc(F)cc4c2cc1OC)[C@H](O)[C@@H]1CCCN1C3.Cl', 'IC50', '> 1 µg/mL');

Quote IC50 reported for COc1cc2c3c(c4ccc(F)cc4c2cc1OC)C[C@@H]1CCCN1C3.CS(=O)(=O)O please.
> 1 µg/mL

Retrieve IC50 measured for COc1cc2c3c(c4ccc(N)cc4c2cc1OC)[C@H](O)[C@@H]1CCCN1C3.Cl and print it.
> 0.1 µg/mL

Using known records, supply IC50 for COc1cc2c3c(c4ccc(NC(=O)OCc5ccccc5)cc4c2cc1OC)[C@H](O)[C@@H]1CCCN1C3.Cl
> 1 µg/mL

Tell us which IC50 value is on record for COc1cc2c3c(c4ccc(NC(=O)OCC(C)C)cc4c2cc1OC)[C@H](O)[C@@H]1CCCN1C3.Cl
> 1 µg/mL

###

test system: NFκB; experiment: Inhibitory action on the NFκB activity, luciferase assay in SW480/NRE-Luc cells; assay type: cell-based, human; settings: Homo sapiens, SW480, read-out: NFκB inhibitory activity IC50
Reported log10(IC50) values follow for various compounds
Use the decimal logarithm of IC50 (ng/mL).

Answer with reported log10(IC50) of COc1cc2c3c(c4ccc(N)cc4c2cc1OC)[C@H](O)[C@@H]1CCCN1C3.Cl
0.04

Entry CCc1ccc2c3c(c4cc(OC)c(OC)cc4c2c1)CN1CCC[C@H]1C3.Cl needs its log10(IC50) filled in; supply it.
2.45

State its log10(IC50): COc1cc2c3c(c4cccc(O)c4c2cc1OC)[C@H](O)[C@@H]1CCCN1C3.CS(=O)(=O)O
0.43

State, in one line, measured log10(IC50) of COc1cc2c3c(c4cc(O)ccc4c2cc1OC)C[C@@H]1CCCN1C3.Cl
0.72

Supply measured log10(IC50) of COc1cc2c3c(c4ccccc4c2cc1OC)C[C@@H]1CCCN1C3.Cl in your reply.
1.44

Could you please provide reported log10(IC50) for COc1cc2c3c(c4ccc(F)cc4c2cc1OC)C[C@@H]1CCCN1C3.Cl ? Thanks!
1.46

Report measured log10(IC50); entry is COc1cc2c3c(c4cccc(O)c4c2cc1OC)[C@H](O)[C@@H]1CCCN1C3.Cl
-1.77

###

test system: mouse fibrosarcoma Meth A cells; assay: Antitumor effect in mice transplanted with mouse fibrosarcoma Meth A cells; assay type: in vivo; settings: total dose 25 mg/kg, intravenous on days 1, 5, 9; tumor weight day 21; BALB/c mice
Each record here notes measured Tumor growth inhibition rate IR.
Value expressed in %; do not type the unit.

INSERT INTO measurements (compound, result_number) VALUES
  ('COc1cc2c3c(c4cccc(O)c4c2cc1OC)C[C@@H]1CCCN1C3.Cl [Compound 40]', 25.8);

Tell me Tumor growth inhibition rate IR reported for COc1cc2c3c(c4ccc(OC(=O)c5ccco5)cc4c2cc1OC)[C@H](O)[C@@H]1CCCN1C3.Cl [Compound 20]
36.7

###

tested on: human colon cancer SW480 cells; assay: Inhibitory action on the proliferation of SW480 cells; type: cell-based; conditions: 48 hours, TetraColor ONE
assay metric: SW480 proliferation inhibitory action IC50 (ng/mL)
Could you give me the number in ng/mL? Just the number is fine.

Input CCOC(=O)Oc1ccc2c3c(c4cc(OC)c(OC)cc4c2c1)CN1CCC[C@H]1[C@H]3O.Cl , output reported SW480 proliferation inhibitory action IC50.
0.65

// fetch SW480 proliferation inhibitory action IC50 given entry COC(=O)CCC(=O)Oc1ccc2c3c(c4cc(OC)c(OC)cc4c2c1)CN1CCC[C@H]1C3.CS(=O)(=O)O
0.36

###

tested on: NFκB; assay: Inhibitory action on the NFκB activity, luciferase assay in SW480/NRE-Luc cells; assay type: cell-based, human; details: Homo sapiens, SW480, read-out: NFκB inhibitory activity IC50
assay metric: IC50 (µg/mL)
All answers are understood in µg/mL, so give the number only.

Here are 4 compounds together with their reported answers.
INSERT INTO assay_data (mol_smiles, assay_metric, unit_of_measure, result_number) VALUES
  ('COc1cc2c3c(c4ccc(NC(=O)OCC(C)C)cc4c2cc1OC)C[C@@H]1CCCN1C3.CS(=O)(=O)O', 'IC50', 'µg/mL', 0.0005),
  ('COc1cc2c3c(c4ccc(NC(=O)OCc5ccccc5)cc4c2cc1OC)[C@H](O)[C@@H]1CCCN1C3.Cl', 'IC50', 'µg/mL', 0.0199),
  ('COc1cc2c3c(c4ccc(F)cc4c2cc1OC)[C@H](O)[C@@H]1CCCN1C3.Cl', 'IC50', 'µg/mL', 0.0207),
  ('COc1cc2c3c(c4ccc(F)cc4c2cc1OC)C[C@@H]1CCCN1C3.CS(=O)(=O)O', 'IC50', 'µg/mL', 0.0368);

Return the recorded IC50 value; entry: COc1cc2c3c(c4ccc(F)cc4c2cc1OC)[C@@H](O)[C@H]1CCCN1C3.Cl
0.166

State its IC50 for this compound: COc1cc2c3c(c4cc(O)ccc4c2cc1OC)[C@H](O)[C@@H]1CCCN1C3.Cl
0.0014

Given COc1cc2c3c(c4ccccc4c2cc1OC)C[C@@H]1CCCN1C3.CS(=O)(=O)O , respond with its IC50.
0.0191

Supply measured IC50 of CCc1ccc2c3c(c4cc(OC)c(OC)cc4c2c1)CN1CCC[C@H]1[C@H]3O.Cl in your reply.
0.105
